measurement description: Pharmacokinetic study of everolimus in mice bearing HT29 tumors (plasma and tumor, LC/MS/MS)
Format: in vivo
condition label: nude, mouse, po; HT29 tumor, 10 mg/kg, mice; read-out: AUC0→24
measured endpoint: AUC(0-t) (µM·h)
Numbers only, in µM·h.

## Input Recorded AUC(0-t) of CO[C@H]1C[C@@H]2CC[C@@H](C)[C@@](O)(O2)C(=O)C(=O)N2CCCC[C@H]2C(=O)O[C@H]([C@H](C)C[C@@H]2CC[C@@H](OCCO)[C@H](OC)C2)CC(=O)[C@H](C)/C=C(\C)[C@@H](O)[C@@H](OC)C(=O)[C@H](C)C[C@H](C)/C=C/C=C/C=C/1C [Everolimus, 40-O-(2-hydroxyethyl)-rapamycin] , please.
## Output 3.93
